FYI, the data here is from patent US20190262327A1.

target: T1, human Amyloid beta 1-42 peptide (Homo sapiens, UniProt P05067); assay: Surface Plasmon Resonance kinetic profiling of purified scFv (ProteOn); format: binding; settings: biotinylated human Amyloid beta 1-42 on streptavidin chip
T1 construct: biotinylated human Amyloid beta 1-42 peptide (rpeptide, USA; cat: A1117); purchased rPeptide, USA A1117; host or cells: synthetic peptide
T1 sequence (P05067 672-713): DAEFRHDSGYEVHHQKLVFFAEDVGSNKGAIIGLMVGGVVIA

| Molecule | Units text | kd |
| --- | --- | --- |
| Abet0380: optimized anti-Aβ1-42 clone derived from Abet0144-GL, non-germlined (protein, left off: small tags and cut ends, optimized anti-Aβ1-42 clone derived from Abet0144-GL, non-germlined) scFv (part 1 of 2): EVQLLESGGGLVQPGGSLRLSCAASMGNFNYQTMWWVRQAPGRGLEWVSVIGKTNENIAYADSVKGRFTISRDNSKNTLYLQMNSLRAEDTAVYYCAREWMDHSRPYYYYGMDVWGQGTLVTVSS scFv (part 2 of 2): SYELTQPPSVSVSPGQTASITCSGHNLEDKFASWYQQKPGQSPVLVIYRDDKRPSGIPERFSASNSGHTATLTISGTQATDEADYYCSSQDTVTRVFGGGTKLTVL | s⁻¹ | 2.85e-05 |
